- Condition details: rat; liver microsomes; pH 7.4; 15.0 min; 1.0 µM
For each of the molecules below, state its half-life.
Reply numerically in min, unit not repeated.

What value of half-life has been recorded for this entry: O=C1Nc2ccccc2/C1=C\c1ccc(O)c(F)c1
20

What value of half-life has been recorded for this entry: O=[S+]([O-])(Nc1ccc2ccccc2c1)c1ccc(NCc2ccc(Cl)cc2O)cc1
21

What value of half-life has been recorded for this entry: Cc1ccc(S(=O)(=O)Nc2cc3c(cc2C(=O)Nc2nc(-c4ccccc4)cs2)OCO3)cc1
6.7

What value of half-life has been recorded for this entry: COc1cc(Cl)c(C)cc1NS(=O)(=O)c1c(C)nc2sccn2c1=O
1.53

What value of half-life has been recorded for this entry: C/C=C1/CN2CC[C@@]34c5ccccc5N(C)[C@@H]3[C@@H]2C[C@@H]1[C@H]4C(=O)OC
4.13

What value of half-life has been recorded for this entry: Cn1c(C(=O)NCCc2ccccn2)nc2nc(-c3ccccc3)c(Cl)cc21
7.82

What value of half-life has been recorded for this entry: Cc1ccccc1C(=O)N1CCc2cc(-n3cc(NC(=O)Cc4ccccc4)cn3)ccc21
11

What value of half-life has been recorded for this entry: CC(=O)N1CCc2c(sc3c2c(=O)n(-c2ccccc2Cl)c(=O)n3Cc2cccc(C)c2)C1
1.41

What value of half-life has been recorded for this entry: Cn1nc(-c2ccccc2F)c2cc(C(=O)Nc3cc(F)ccc3F)sc21
26.2

====

- Condition details: rat; liver microsomes; pH 7.4; 15.0 min; 1.0 µM
For each of the molecules below, state its half-life.

What value of half-life has been recorded for this entry: Cc1ccc(NC(=O)CSc2ncc(S(=O)(=O)c3ccc(C(C)C)cc3)c(=O)[nH]2)cc1C
4.98 min

What value of half-life has been recorded for this entry: Cc1cnc(-c2ccccc2C(F)F)nc1NCC1CN(c2cnccn2)C1
1.8 min

What value of half-life has been recorded for this entry: CSc1ncc(Cl)c(C(=O)Nc2c(C)cccc2C)n1
5.48 min

What value of half-life has been recorded for this entry: CCOC(=O)c1ccnc(CNCC(=O)N(CC)CCN(C)C)c1
> 30 min

What value of half-life has been recorded for this entry: COC[C@@H]1CN(C(=O)c2n[nH]c3ccccc23)C[C@H]1c1nc(C)no1
> 30 min

What value of half-life has been recorded for this entry: Cc1ccc(S(=O)(=O)Nc2cnccc2C(=O)NCCc2ccccc2)cc1
4.9 min

What value of half-life has been recorded for this entry: O=C(N/N=C/c1ccc(Sc2ccccn2)o1)c1ccncc1
> 30 min

What value of half-life has been recorded for this entry: O=c1cc(-c2ccc(O)c(O)c2)oc2cc(O)cc(O)c12
> 30 min

What value of half-life has been recorded for this entry: Cc1ccc(S(=O)(=O)Nc2cnccc2C(=O)Nc2nc(-c3ccc(-c4ccccc4)cc3)cs2)cc1
> 30 min

What value of half-life has been recorded for this entry: O=C([C@@H]1CCCN(c2ccc3[nH]c(C4(n5cc(Cl)cn5)CC4)nc3n2)C1)N1CCCC1
> 30 min

What value of half-life has been recorded for this entry: CCC(CC)c1cc([C@H]2CN3CC[C@H]2C[C@@H]3CNC(=O)Cc2cccs2)nc(-c2ccncc2)n1
2.78 min

What value of half-life has been recorded for this entry: O=C(NCCc1cnc[nH]1)c1ccc(-c2ncc3cnc(-c4cccc(F)c4)cn23)cc1
> 30 min

What value of half-life has been recorded for this entry: CC(=O)Nc1ncc(S(=O)(=O)Nc2cnccc2C(=O)Nc2nc(-c3ccccc3)cs2)s1
> 30 min

What value of half-life has been recorded for this entry: O=C(Nc1cccc(OC(F)(F)F)c1)c1cc(-c2ccc[nH]2)n[nH]1
20.9 min

====

For each of the compounds below, state its half-life.
- Condition details: rat; liver microsomes; pH 7.4; 15.0 min; 1.0 µM
Reply numerically in min, unit not repeated.

What value of half-life has been recorded for this entry: Cc1ccc(S(=O)(=O)Nc2ccc(C(=O)Nc3nc(-c4ccccc4)cs3)cc2Cl)cc1
4

What value of half-life has been recorded for this entry: COC(=O)c1cccc(NC(=O)c2cnc(-c3ccc(F)cc3)nc2-c2ccncc2)c1
9.09

What value of half-life has been recorded for this entry: Cc1cccc(Nc2nc(NCc3ccco3)c3ccccc3n2)c1
3.54

What value of half-life has been recorded for this entry: Cn1nnnc1Sc1ncnc2sc(-c3ccccc3)cc12
12.3

====

- Condition details: rat; liver microsomes; pH 7.4; 15.0 min; 1.0 µM
Value type: half-life (min)
Reply numerically in min, unit not repeated.

What value of half-life has been recorded for this entry: Cc1cccc(NC(=S)N2CCN(c3cccc(C(F)(F)F)c3)CC2)c1
6

What value of half-life has been recorded for this entry: Cc1ccc(C(=O)N2CCc3cc(-c4nc(NC(=O)Cc5ccc6c(c5)OCO6)sc4C)ccc32)cc1
6

What value of half-life has been recorded for this entry: CC(C)(C)c1ccc(S(=O)(=O)c2cnc(SCC(=O)Nc3ccc(F)c(Cl)c3)[nH]c2=O)cc1
5.92

====

For each of the molecules below, state its half-life.
- Condition details: rat; liver microsomes; pH 7.4; 15.0 min; 1.0 µM
Reply numerically in min, unit not repeated.

What value of half-life has been recorded for this entry: O=C(CCCN1CCC(n2c(=O)[nH]c3ccccc32)CC1)c1ccc(F)cc1
10.9

What value of half-life has been recorded for this entry: O=C1c2ccccc2C2=Nc3ccccc3SC(c3ccccc3F)C12 (centres undefined)
3.11

What value of half-life has been recorded for this entry: FC(F)(F)Oc1cccc(Nc2nc(-c3ccncc3)nc3ccccc23)c1
19

What value of half-life has been recorded for this entry: Cc1cc(C)c(CNC(=O)c2nc(-c3ccc(F)cc3)cc3c2ccn3C(C)C)c(=O)[nH]1
7.89

What value of half-life has been recorded for this entry: Cc1ccccc1C(=O)N1CCc2cc(-c3nc(NC(=O)Cc4ccccc4)sc3C)ccc21
24

What value of half-life has been recorded for this entry: CN(C)CC/C=C1\c2ccccc2Sc2ccc(Cl)cc21
1.76

What value of half-life has been recorded for this entry: CCc1ccc(NC(=O)CSC2=Nc3ccccc3C3=NC(CC(=O)NCc4ccc5c(c4)OCO5)C(=O)N23)cc1 (centres undefined)
2.86

What value of half-life has been recorded for this entry: CCOC(=O)c1[nH]c(C)c(CCC(=O)N2CCN(c3cc(C)ccc3C)CC2)c1C
2.27

What value of half-life has been recorded for this entry: CN1CCN(c2ccc(Nc3nc(-c4ccncc4)nc4ccccc34)cc2F)CC1
8.8

What value of half-life has been recorded for this entry: C[C@@H]1C(=O)O[C@H]2[C@H]1CC[C@@]1(C)Cc3sc(NS(=O)(=O)Cc4ccccc4)nc3[C@@H](C)[C@H]21
1.69

What value of half-life has been recorded for this entry: CCOc1cc(CCNC(=O)c2cc3sccc3n2Cc2ccccc2)cc(F)c1OCC
2

What value of half-life has been recorded for this entry: COc1ccc(-c2noc([C@@H]3Cc4nc[nH]c4CN3C(=O)NC3CCCCC3)n2)cc1
6.59

What value of half-life has been recorded for this entry: Cc1cn2c(-c3cn[nH]c3)cnc2c(Nc2ccc(C(=O)N3CCNCC3)cc2F)n1
7

What value of half-life has been recorded for this entry: CCOc1ccc(C2C(C(=O)Nc3ccccc3OC)=C(C)Nc3c(C(=O)Nc4cccc(C)c4)cnn32)cc1 (centres undefined)
4.18

What value of half-life has been recorded for this entry: CCN1CCC(N(Cc2ccc3c(c2)OCO3)C(=O)Nc2cc(Cl)ccc2C(=O)OC)CC1
6.72

====

- Condition details: rat; liver microsomes; pH 7.4; 15.0 min; 1.0 µM
Consider the cut-off 4 min. If the recorded half-life is strictly smaller, the label is true (1); if not, the label is false (0).

A record lists O=C1Nc2ccccc2/C1=C/c1ccnc2ccccc12 . Is its half-life below 4 min?
false (0)

A record lists O=C(O)CCC(=O)Nc1nc(-c2ccccc2)cs1 . Is its half-life below 4 min?
false (0)

A record lists N#CC1(c2ccc(NC(=O)c3cccnc3NCc3ccncc3)cc2)CCCC1 . Is its half-life below 4 min?
false (0)

A record lists Cc1cc(NS(=O)(=O)c2ccc(NCCc3ccc(Cl)c(Cl)c3)cc2)no1 . Is its half-life below 4 min?
false (0)

A record lists CC[C@@H](C)Nc1cc(C(=O)NC2CC3CCC(C2)N3c2ccc(C(=O)C3CC3)cn2)c(C)cc1C(N)=O (stereo not given in full) . Is its half-life below 4 min?
false (0)

A record lists CCOC(=O)C1CCN(C(=O)Nc2ccc3c(c2)nc(C)n3C)CC1 . Is its half-life below 4 min?
true (1)

A record lists COc1ccc2[nH]cc(CCNC(=O)c3cnn(-c4ccc(C)cc4)c3C3CCN(C(=O)OC(C)(C)C)CC3)c2c1 . Is its half-life below 4 min?
true (1)

A record lists Cc1ccc(S(=O)(=O)Nc2cccc(C(=O)Nc3nc(-c4ccc(Cl)cc4)cs3)c2)cc1 . Is its half-life below 4 min?
false (0)

A record lists Cc1noc([C@@H]2CN(C(=O)c3nn(C)c4ccccc34)C[C@H]2CO)n1 . Is its half-life below 4 min?
false (0)

A record lists Fc1cc(Nc2nc(-c3ccncc3)nc3ccccc23)ccc1-c1ccnc(C(F)(F)F)c1 . Is its half-life below 4 min?
false (0)

A record lists NC(=O)C1CCN(c2nc(-c3cccc(F)c3)cs2)CC1 . Is its half-life below 4 min?
true (1)

A record lists CCC(C)N(C)C(=O)c1cc2ccccc2c(-c2ccccc2Cl)n1 (stereo not given) . Is its half-life below 4 min?
true (1)

A record lists OC(CCN1CCCCC1)c1ccc(-c2ccccc2)cc1 (stereo not given) . Is its half-life below 4 min?
false (0)

A record lists CC(C)(O)CCc1ccc(OCc2cc(-c3cccc(OC(F)F)c3)c3ncccc3c2)cc1 . Is its half-life below 4 min?
false (0)

A record lists O=C1c2ccccc2C2=Nc3ccccc3SC(c3ccc(Cl)cc3)C12 (stereo not given) . Is its half-life below 4 min?
true (1)

A record lists COc1cccc(CNc2ccc(S(=O)(=O)Nc3nccs3)cc2)c1O . Is its half-life below 4 min?
false (0)

A record lists COc1cccc(C(=O)Nc2nc(-c3nnn(-c4ccccc4C(F)(F)F)c3C)ns2)c1 . Is its half-life below 4 min?
false (0)

A record lists CNc1oc(-c2cccc3ccccc23)nc1C(=O)Nc1cccc(C#N)c1 . Is its half-life below 4 min?
false (0)

A record lists Cc1ccccc1C(=O)N1CCc2cc(-c3csc(NC(=O)Cc4ccc5c(c4)OCO5)n3)ccc21 . Is its half-life below 4 min?
false (0)

A record lists Cc1ccc(S(=O)(=O)Nc2cc(F)ccc2C(=O)Nc2nc(-c3ccccc3)cs2)cc1 . Is its half-life below 4 min?
false (0)

A record lists O=C(Nc1ccc(S(=O)(=O)Nc2nccs2)cc1)c1ccncc1 . Is its half-life below 4 min?
false (0)

A record lists CCOc1ccc(CCN(C)C(=O)c2cc3sccc3n2Cc2ccccc2)cc1OCC . Is its half-life below 4 min?
true (1)

A record lists CCN(CCN(C)C)C(=O)C1CCN(S(=O)(=O)c2c(C)noc2/C=C/c2ccccc2F)CC1 . Is its half-life below 4 min?
false (0)

A record lists CCc1ccc(OC(C)C(=O)N2CCC(c3nc4ccccc4o3)CC2)cc1 (stereo not given) . Is its half-life below 4 min?
true (1)

A record lists Cc1ccnc(NC(=S)N2CCN(c3ccc(Cl)cc3Cl)CC2)c1 . Is its half-life below 4 min?
false (0)

A record lists O=C1CCCC2=C1C(c1[nH]ncc1Cl)N=C(Nc1nc3cc([S+](=O)([O-])N4CCCC4)ccc3o1)N2 (stereo not given) . Is its half-life below 4 min?
false (0)

A record lists O=C(NCCc1ccccn1)C1CC(=O)N(c2n[nH]c3cc(Br)ccc23)C1 (stereo not given) . Is its half-life below 4 min?
false (0)

A record lists Cc1sc2c(c1C)C(c1ccc(Cl)cc1)=N[C@@H](CC(=O)OC(C)(C)C)c1nnc(C)n1-2 . Is its half-life below 4 min?
false (0)

A record lists O=C(O)c1ccnc2cc(C(OCC3CCC(F)(F)CC3)c3ccccc3Cl)[nH]c12 (stereo not given) . Is its half-life below 4 min?
false (0)
